Give measured zone of inhibition at 1000 µg/mL for each item. Keep answers brief.
tested on: Klebsiella pneumoniae; experiment: Antibacterial activity against Klebsiella pneumoniae at 1 mg/mL after 18 hrs by disc diffusion assay; type: functional; conditions: read-out: IZ
Give bare numbers, in mm.

Examples from the recorded data:
COc1ccc2c3c1O[C@H]1C[C@@H](OP(=O)(OP(=O)(O)O)N(CCCl)CCCl)C=C[C@@]31CCN(C)C2 (stereo not given in full)	1.39
COc1ccc2c3c1O[C@H]1C[C@@H](OP(=O)(Oc4ccc([N+](=O)[O-])cc4)SCCO)C=C[C@@]31CCN(C)C2 (stereo not given in full)	2.36
COc1ccc2c3c1O[C@H]1C[C@@H](OP(=O)(Oc4ccc([N+](=O)[O-])cc4)OP(=O)(O)O)C=C[C@@]31CCN(C)C2 (stereo not given in full)	1.88

Report zone of inhibition at 1000 µg/mL for every entry below.
1. COc1ccc2c3c1O[C@H]1C[C@@H](OP(=O)(OCCO)Oc4ccc([N+](=O)[O-])cc4)C=C[C@@]31CCN(C)C2 (stereo not given in full)
2. COc1ccc2c3c1O[C@H]1C[C@@H](OP(=O)(SCCO)N(CCCl)CCCl)C=C[C@@]31CCN(C)C2 (stereo not given in full)

Response:
[2.69, 2.08]

###

test system: Bacillus subtilis; test: Antibacterial activity against Bacillus subtilis at 1 mg/mL after 18 hrs by disc diffusion assay; type: functional; conditions: read-out: IZ
Output Criterion met for zone of inhibition at 1000 µg/mL not less than 2 mm; output Criterion not met otherwise.

Worked examples, 5 molecules total:
COc1ccc2c3c1O[C@H]1C[C@@H](OP(=O)(OCCO)N(CCCl)CCCl)C=C[C@@]31CCN(C)C2 (some centres not stated)	Criterion not met
COc1ccc2c3c1O[C@H]1C[C@@H](OP(=O)(NCCN)N(CCCl)CCCl)C=C[C@@]31CCN(C)C2 (some centres not stated)	Criterion not met
COc1ccc2c3c1O[C@H]1C[C@@H](OP(=O)(OCCO)Oc4ccc([N+](=O)[O-])cc4)C=C[C@@]31CCN(C)C2 (some centres not stated)	Criterion met
COc1ccc2c3c1O[C@H]1C[C@@H](OP(=O)(SCCO)N(CCCl)CCCl)C=C[C@@]31CCN(C)C2 (some centres not stated)	Criterion not met
O=C(N[C@H](CO)[C@H](O)c1ccc([N+](=O)[O-])cc1)C(Cl)Cl	Criterion not met

Prompt: Determine whether this molecule has zone of inhibition at 1000 µg/mL no lower than 2 mm: COc1ccc2c3c1O[C@H]1C[C@@H](OP(=O)(OP(=O)(O)O)N(CCCl)CCCl)C=C[C@@]31CCN(C)C2 (some centres not stated)
Response: Criterion met

Prompt: Determine whether this molecule has zone of inhibition at 1000 µg/mL no lower than 2 mm: COc1ccc2c3c1O[C@H]1C[C@@H](OP(=O)(NCCO)Oc4ccc([N+](=O)[O-])cc4)C=C[C@@]31CCN(C)C2 (some centres not stated)
Response: Criterion not met

###

system: Escherichia coli; assay: Antibacterial activity against Escherichia coli at 1 mg/mL after 18 hrs by disc diffusion assay; format: functional; conditions: read-out: IZ
Give measured zone of inhibition at 1000 µg/mL for each item. Keep answers brief.
One number for each entry, in mm.

Examples from the recorded data:
COc1ccc2c3c1O[C@H]1C[C@@H](OP(=O)(Oc4ccc([N+](=O)[O-])cc4)SCCO)C=C[C@@]31CCN(C)C2 (some centres not stated)	3.62
COc1ccc2c3c1O[C@H]1C[C@@H](OP(=O)(Oc4ccc([N+](=O)[O-])cc4)OP(=O)(O)O)C=C[C@@]31CCN(C)C2 (some centres not stated)	2.42
COc1ccc2c3c1O[C@H]1C[C@@H](OP(=O)(OP(=O)(O)O)N(CCCl)CCCl)C=C[C@@]31CCN(C)C2 (some centres not stated)	1.26
COc1ccc2c3c1O[C@H]1C[C@@H](OP(=O)(SCCO)N(CCCl)CCCl)C=C[C@@]31CCN(C)C2 (some centres not stated)	1.14
COc1ccc2c3c1O[C@H]1C[C@@H](OP(=O)(OCCO)Oc4ccc([N+](=O)[O-])cc4)C=C[C@@]31CCN(C)C2 (some centres not stated)	1.53

Report zone of inhibition at 1000 µg/mL for every entry below.
1. O=C(N[C@H](CO)[C@H](O)c1ccc([N+](=O)[O-])cc1)C(Cl)Cl
2. COc1ccc2c3c1O[C@H]1C[C@@H](OP(=O)(NCCO)N(CCCl)CCCl)C=C[C@@]31CCN(C)C2 (some centres not stated)

Response:
[2.02, 1.32]

Report zone of inhibition at 1000 µg/mL for every entry below.
1. COc1ccc2c3c1O[C@H]1C[C@@H](OP(=O)(NCCN)Oc4ccc([N+](=O)[O-])cc4)C=C[C@@]31CCN(C)C2 (some centres not stated)
2. COc1ccc2c3c1O[C@H]1C[C@@H](O)C=C[C@@]31CCN(C)C2

Response:
[1.02, 1.47]

###

system: Brain; test: Antioxidant activity in Wistar rat brain assessed as inhibition of lipid peroxidation; assay type: functional, tissue-based
Quantity name: EC50 (µg/mL)
Give bare numbers, in µg/mL.

Examples from the recorded data:
COc1ccc2c3c1O[C@H]1C[C@@H](OP(=O)(NCCO)Oc4ccc([N+](=O)[O-])cc4)C=C[C@@]31CCN(C)C2 (stereo partly drawn)	2.81
COc1ccc2c3c1O[C@H]1C[C@@H](OP(=O)(NCCO)N(CCCl)CCCl)C=C[C@@]31CCN(C)C2 (stereo partly drawn)	1.42
COc1ccc2c3c1O[C@H]1C[C@@H](OP(=O)(OP(=O)(O)O)N(CCCl)CCCl)C=C[C@@]31CCN(C)C2 (stereo partly drawn)	1.98
COc1ccc2c3c1O[C@H]1C[C@@H](OP(=O)(SCCO)N(CCCl)CCCl)C=C[C@@]31CCN(C)C2 (stereo partly drawn)	1.33
COc1ccc2c3c1O[C@H]1C[C@@H](OP(=O)(OCCO)N(CCCl)CCCl)C=C[C@@]31CCN(C)C2 (stereo partly drawn)	2.87

Report EC50 for every entry below.
1. COc1ccc2c3c1O[C@H]1C[C@@H](OP(=O)(Oc4ccc([N+](=O)[O-])cc4)SCCO)C=C[C@@]31CCN(C)C2 (stereo partly drawn)
2. COc1ccc2c3c1O[C@H]1C[C@@H](OP(=O)(OCCO)Oc4ccc([N+](=O)[O-])cc4)C=C[C@@]31CCN(C)C2 (stereo partly drawn)
3. COc1ccc2c3c1O[C@H]1C[C@@H](OP(=O)(NCCN)N(CCCl)CCCl)C=C[C@@]31CCN(C)C2 (stereo partly drawn)

Response:
1. 2.64
2. 3.17
3. 2.88

###

Molecular target: Catalase (Rattus norvegicus)
Sequence (P04762 whole entry): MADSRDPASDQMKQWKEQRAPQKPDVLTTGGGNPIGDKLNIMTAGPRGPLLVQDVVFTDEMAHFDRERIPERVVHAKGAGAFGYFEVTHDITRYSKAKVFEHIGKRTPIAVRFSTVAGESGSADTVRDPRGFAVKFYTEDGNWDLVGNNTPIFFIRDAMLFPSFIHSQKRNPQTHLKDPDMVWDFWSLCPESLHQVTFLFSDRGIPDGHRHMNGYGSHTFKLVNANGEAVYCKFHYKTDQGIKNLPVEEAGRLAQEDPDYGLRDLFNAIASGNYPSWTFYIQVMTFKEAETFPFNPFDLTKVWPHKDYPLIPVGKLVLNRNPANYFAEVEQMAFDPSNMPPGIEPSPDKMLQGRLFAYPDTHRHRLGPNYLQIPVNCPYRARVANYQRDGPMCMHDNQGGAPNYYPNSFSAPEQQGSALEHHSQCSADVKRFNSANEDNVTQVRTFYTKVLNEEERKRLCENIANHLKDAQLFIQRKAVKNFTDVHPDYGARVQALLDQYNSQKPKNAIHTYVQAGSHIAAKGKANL
Test: Inhibition of catalase in Wistar rat brain
Quantity name: EC50 (mg/L)
One number for each entry, in mg/L.

Examples from the recorded data:
COc1ccc2c3c1O[C@H]1C[C@@H](OP(=O)(Oc4ccc([N+](=O)[O-])cc4)SCCO)C=C[C@@]31CCN(C)C2 (stereo partly specified)	4.25
COc1ccc2c3c1O[C@H]1C[C@@H](OP(=O)(Oc4ccc([N+](=O)[O-])cc4)OP(=O)(O)O)C=C[C@@]31CCN(C)C2 (stereo partly specified)	2.92
COc1ccc2c3c1O[C@H]1C[C@@H](OP(=O)(NCCN)Oc4ccc([N+](=O)[O-])cc4)C=C[C@@]31CCN(C)C2 (stereo partly specified)	1.81
COc1ccc2c3c1O[C@H]1C[C@@H](OP(=O)(SCCO)N(CCCl)CCCl)C=C[C@@]31CCN(C)C2 (stereo partly specified)	1.67
COc1ccc2c3c1O[C@H]1C[C@@H](OP(=O)(OCCO)Oc4ccc([N+](=O)[O-])cc4)C=C[C@@]31CCN(C)C2 (stereo partly specified)	3.28

Report EC50 for every entry below.
1. COc1ccc2c3c1O[C@H]1C[C@@H](OP(=O)(NCCN)N(CCCl)CCCl)C=C[C@@]31CCN(C)C2 (stereo partly specified)
2. COc1ccc2c3c1O[C@H]1C[C@@H](OP(=O)(NCCO)Oc4ccc([N+](=O)[O-])cc4)C=C[C@@]31CCN(C)C2 (stereo partly specified)
3. COc1ccc2c3c1O[C@H]1C[C@@H](OP(=O)(NCCO)N(CCCl)CCCl)C=C[C@@]31CCN(C)C2 (stereo partly specified)

Response:
[2.73, 4.94, 1.52]

Report EC50 for every entry below.
1. COc1ccc2c3c1O[C@H]1C[C@@H](OP(=O)(OCCO)N(CCCl)CCCl)C=C[C@@]31CCN(C)C2 (stereo partly specified)
2. COc1ccc2c3c1O[C@H]1C[C@@H](OP(=O)(OP(=O)(O)O)N(CCCl)CCCl)C=C[C@@]31CCN(C)C2 (stereo partly specified)
3. COc1ccc2c3c1O[C@H]1C[C@@H](O)C=C[C@@]31CCN(C)C2

Response:
1. 2.21
2. 2.18
3. 5.06
